# SYSTEM: human endothelial constitutive NOS (eNOS) (Homo sapiens)
# PROTOCOL DETAILS: eNOS (Human) enzyme assay, radiometric conversion of [3H]L-arginine to [3H]L-citrulline
# Type: biochemical
# CONDITION SUMMARY: Human eNOS (μM), recombinant human enzyme, 37° C., 45 min
# Description: Recombinant human inducible NOS (iNOS), human endothelial constitutive NOS (eNOS) or human neuronal constitutive NOS(nNOS) were produced in Baculovirus-infected Sf9 cells (ALEXIS). In a radiometric method, NO synthase activity was determined by measuring the conversion of [^3H]L-arginine to [^3H]L-citrulline. […]
READOUT TYPE: IC50 (µM)

# COMPOUND STRING, MEASUREMENT UNIT, DATA VALUE
rows = [
    ("CCN(CC)CCn1c(Cc2ccc(OC(F)(F)F)cc2)cc2cc(NC(=N)c3cccs3)ccc21", "µM", 4.5),
]

====

# SYSTEM: UniProtKB P29474
# PROTOCOL DETAILS: eNOS (Human) enzyme assay, radiometric conversion of [3H]L-arginine to [3H]L-citrulline
# Type: biochemical
# CONDITION SUMMARY: recombinant human enzyme, 37° C., 45 min; read-out: Human eNOS
pIC50: −log10 of the molar value.
# key: entry, value: pIC50

# COMPOUND, pIC50
records = [
    ("N=C(Nc1ccc2c(C3=CN4CCC3CC4)c[nH]c2c1)c1cccs1", 4.34),
    ("N=C(Nc1ccc2c(ccn2CCCNC23CC4CC(CC(C4)C2)C3)c1)c1cccs1", 5.50),
    ("CN1CCCC1CCn1c(-c2ccc([N+](=O)[O-])cc2)cc2cc(NC(=N)c3cccs3)ccc21 (stereo not shown)", 4.88),
    ("N=C(Nc1ccc2c(ccn2CCN2CCCCC2)c1)c1cccs1", 5.04),
    ("CC(C)NC1CCC(c2c[nH]c3cc(NC(=N)c4cccs4)ccc23)CC1 (stereo not shown)", 5.16),
    ("Cc1cc2cc(NC(=N)c3cccs3)ccc2n1CCN1CCCC1", 5.83),
    ("N=C(Nc1ccc2c(ccn2C2CCOCC2)c1)c1cccs1", 5.01),
    ("CN1CCCC1CCn1ccc2cc(NC(=N)c3ccco3)ccc21 (stereo not shown)", 4.86),
    ("CN1CCCC1CCn1ccc2cc(NC(=N)c3cccs3)ccc21 (single isomer, unassigned) [(+)−57]", 5.47),
    ("CN1CCCC1CCn1ccc2cc(CNC(=N)c3cccs3)ccc21 (stereo not shown)", 4.04),
    ("CCCN[C@H]1CC[C@H](c2c[nH]c3cc(NC(=N)c4cccs4)ccc32)CC1", 4.94),
    ("Cc1cc2cc(NC(=N)c3cccs3)ccc2n1CCC1CCCN1C (stereo not shown)", 5.54),
    ("CN1C2CCC1CC(n1ccc3cc(NC(=N)c4cccs4)ccc31)C2 (stereo not shown)", 4.72),
    ("N=C(Nc1ccc2c(c1)cc(-c1ccc([N+](=O)[O-])cc1)n2CCN1CCCCC1)c1cccs1", 4.72),
    ("CN1CCCC(n2ccc3cc(NC(=N)c4ccco4)ccc32)CC1 (single isomer, unassigned) [(+)−55]", 4.61),
    ("CN1CCCC1CCn1c(Cc2ccc(OC(F)(F)F)cc2)cc2cc(NC(=N)c3cccs3)ccc21 (stereo not shown)", 5.82),
]
